- Target or system: SARS-CoV preparation (Frankfurt 1 strain)
- Method description: phage ELISA on coated SARS-CoV preparation, plate 3 (no phage antibody 0.054)
Binary call on OD492 nm with cut-off 0.8 OD492 nm: strictly below means 1.0, and equality or higher means 0.0.

Sample answers from the record:
>>> group("SC03-039 (scFv) scFv: AMAEVQLVESGGGLVQPGGSLRLSCAASGFTFSSYAMSWVRQAPGKGLEWVSVIYSGGTSTYYADSVKGRFTISRDNSKNTLYLQMNSLRAEDTAVYFCAKGSKWNDVGGGDYWGQGTLVTVSSGTGGSGGTGSGTGGSTNFMLTQPHSVSESPGKTVTISCAGSSGSIASNYVQWYQQRPGSAPTTVIYEDNQRPSGVPDRFSGSIDSSSNSASLTISGLKTEDEADYYCQSYDGYLWIFGGGTKLTVLGAA")
0.0
>>> group("SC03-043 (scFv) scFv: AMAQVQLVQSGGGLVQPGGSLRLSCAASGFTFSSYAMHWVRQAPGKGLEYVSGISSNGGSTYYANSVKGRFTISRDNSKNTLYLQMGSLRAEDMAVYYCARTTNRAFDIWGQGTMVTVSSGTGGSGGTGSGTGGSTDIQLTQSPDSLAVSLGERATINCKSSQSVLYRSNNKNYLAWYQQKPGQPPKLLIYWASTRESGVSERFSGSGSGTDFTLTISSLQAEDVAVYYCQQYYSTPYSFGQGTKLEIKRAA")
0.0
>>> group("SC03-051 (scFv) scFv: AMAQVQLVQSGTEVKKPGESLKISCKGSGYGFITYWIGWVRQMPGKGLEWMGIIYPGDSETRYSPSFQGQVTISADKSINTAYLQWSSLKASDTAIYYCAGGSGISTPMDVWGQGTTVTVSSGTGGSGGTGSGTGGSTDIQMTQSPDSLAVSLGERATINCKSGQSILYSSNDKNYLAWYQQKPGQPPKLLIYWASTRESGVPDRFSGSGSGTDFTLTISSLQAEDVAVYYCQQYYSTPYTFGQGTKVEIKRAA")
1.0
>>> group("SC03-036 (scFv) scFv: AMAEVQLVQSGTEVKKPGESLKISCKGSGYGFITYWIGWVRQMPGKGLEWMGIIYPGDSETRYSPSFQGQVTISADKSINTAYLQWSSLKASDTAIYYCAGGSGISTPMDVWGQGTTVTVSSGTGGSGGTGSGTGGSTDIQMTQSPDSLAVSLGERATINCKSSQSVLHSPNNKNYLAWYQQKPGQPPKLLIYWASTRESGVPDRFSGSGSGTDFTLTISSLQAEDVAVYYCQQYYSTNSFGQGTKLEIKRAA")
1.0
>>> group("SC03-055 (scFv) scFv: AMAQVQLQQWGAGLLKPSETLSLTCAVYGGSFSGFYWSWIRQPPGKGLEWIGEINHSGSTNYNPSLKSRVTISADTSKNQFSLKLSSVTAADTAVYYCARRVEVVEYQLLRPRYKSWFDPWGQGTLVTVSSGTGGSGGTGSGTGGSTQSVLTQPPSVSGAPGQRVSISCSGSGANGGTDPVSWYQKFPGTAPHLLIYDNNKRPSGIPDRFSGSKSGASATLDITGLQTGDEADYYCGAWDPSLSGYVFGTGTQLTVLSAA")
1.0

Ask: Determine if SC03-046 (scFv) scFv: AMAEVQLVQSGGGLVQPGGSLRLSCAASGFTFSSYAMHWVRQAPGKGLEYVSGISSNGGSTYYANSVKGRFTISRDNSKNTLYLQMGSLRAEDMAVYYCARTTNRAFDIWGQGTMVTVSSGTGGSGGTGSGTGGSTDVVMTQSPDSLAVSLGERATINCKSSQSVLYSSNNKNYLAWYQQKPGQPPKLLIYWASTRESGVPDRFSGSGSGTDFSLTISSLQAEDVAVYYCQQYYSPPYTFGPGTKVEIKRAA shows OD492 nm strictly lower than 0.8 OD492 nm.
Result: 0.0

Ask: Determine if SC03-057 (scFv) scFv: AMAQVQLVQSGAEVKKPGSSVKVSCKASGGTFSRYAISWVRQAPGQGLEWMGRINPILNLTNYAQKFQGRVTITADKSTSTAYMEMSSLRSEDTAIYYCASPDIVVAGHASPPHYTMDVWGQGTTVTVSSGTGGSGGTGSGTGGSTDIQMTQSPSSLSASVGDRVTITCRASQGIRNDLGWYQQKPGKAPNLLIYQASALQSGVPSRFSGSESGAEFTLTISSLHPDDFATYYCQQYHDFPITFGQGTRLEIKRAA shows OD492 nm strictly lower than 0.8 OD492 nm.
Result: 0.0
